From: ChEMBL document CHEMBL1146131

- Assay target: Protein farnesyltransferase (Homo sapiens, UniProt P49354+P49356)
- Assay: Inhibition of FTase
pIC50: −log10 of the molar value.
Readout name: pIC50

Use these answered entries as a reference point.
Molecule | pIC50
Cn1cncc1C(OCc1ccc(C#N)cc1NCc1cc(F)cc(F)c1)c1ccc(C#N)cc1 (centres undefined) | 6.21
Cn1cncc1C(OCc1ccc(C#N)cc1-c1cccc(Cl)c1)c1ccc(C(F)(F)F)cc1 (centres undefined) | 5.95
Cn1cncc1C(OCc1ccc(C#N)cc1-c1ccc2c(c1)OC(F)(F)O2)c1ccc(C#N)cc1 (centres undefined) | 5.95
Cn1cncc1C(OCc1ccc(C#N)cc1-c1cccc2ccccc12)c1ccc(C#N)cc1 (centres undefined) | 6.02

(a) COc1cccc(-c2cc(N)ccc2COC(c2ccc(C#N)cc2)c2cncn2C)c1 (centres undefined)
(b) CCOc1ccc(-c2cc(C#N)ccc2COC(c2ccc(C#N)cc2)c2cncn2C)cc1 (centres undefined)
(c) Cn1cncc1C(OCc1ccc(Cl)cc1-c1ccc(Cl)cc1)c1ccc(C#N)cc1 (centres undefined)
(d) Cc1ncc(C(OCc2ccc(C#N)cc2-c2cccc(Cl)c2)c2ccc(C#N)cc2)n1C (centres undefined)
Please order the records by their reported pIC50, lowest number first. Record the ranking as a list of labels in the requested order. a, c, d, b
(a: 4.39, c: 5.31, d: 5.69, b: 5.92)
